Test system: EOC 13.31 microglia cells
procedure.text: Inhibition of NO release from microglia following 24 hours pretreatment (Example 10)
Assay type: cell-based
experimental.setup: Microglia, 50 uM pretreatment 24 hours, then LPS/IFNγ 48 hours; read-out: Avg % Inhibition
Listed here: items and their measured inhibition at 50 µM.
measured.property: inhibition at 50 µM (%)

1) Oc1ccc(CNCc2ccc(O)c(O)c2)cc1O [Compound 73, bis(3,4-dihydroxybenzyl)amine]    100
2) O=C(CCc1ccc(O)c(O)c1)Nc1ccc(O)c(O)c1    100
3) Oc1cc2ncc3cnc4cc(O)c(O)cc4c3c2cc1O    94.9
4) O=C(Nc1ccc(O)c(O)c1)c1ccc(O)c(O)c1    56
5) O=C(Nc1ccc(O)c(O)c1)C(=O)Nc1ccc(O)c(O)c1 [Compound 63, oxalic acid bis(3,4-dihydroxyanilide)]    82.1
6) O=C(CCc1ccc(O)c(O)c1)NCc1ccc(O)c(O)c1    72.5
7) Oc1ccc(CN(Cc2ccc(O)c(O)c2)Cc2ccc(O)c(O)c2)cc1O [Compound 75, tris(3,4-dihydroxybenzyl)amine]    59.6
8) O=C(NCc1ccc(O)c(O)c1)c1ccc(O)c(O)c1    80
9) O=C(CCC(=O)NCc1ccc(O)c(O)c1)NCc1ccc(O)c(O)c1    65.6
